# TARGET_SYSTEM: Cathepsin B from bovine spleen (Bos taurus)
# EXPERIMENTAL_PROTOCOL: Assay for Cathepsin B activity / inhibition (Z-Lys-pNP substrate, absorbance 330 nm)
# Type: biochemical
# EXPERIMENTAL_SETUP: Table 6, MRJP1 derived synthetic peptides; unmodified
REPORTED_PROPERTY: Cathepsin B remaining activity (% of control)

> print(dat)
                                  substance                             target.system  quantitative.result
1  H-CDR-OH (H-Cys-Asp-Arg-OH) [MRJP1 derived synthetic peptide]  Cathepsin B from bovine spleen (Bos taurus)               165.10
2  Ac-MQK-OH (Ac-Met-Gln-Lys-OH) [MRJP1 derived synthetic peptide]  Cathepsin B from bovine spleen (Bos taurus)               121.24
3  Ac-CDR-OH (Ac-Cys-Asp-Arg-OH) [MRJP1 derived synthetic peptide]  Cathepsin B from bovine spleen (Bos taurus)               120.52
4  H-FDR-OH (H-Phe-Asp-Arg-OH) [MRJP1 derived synthetic peptide]  Cathepsin B from bovine spleen (Bos taurus)               174.56
5  Ac-FTK-OH (Ac-Phe-Thr-Lys-OH) [MRJP1 derived synthetic peptide]  Cathepsin B from bovine spleen (Bos taurus)               148.84
